TARGET OF ASSAY: human CRTH2 (Homo sapiens)
Sequence (Q9Y5Y4 1-395): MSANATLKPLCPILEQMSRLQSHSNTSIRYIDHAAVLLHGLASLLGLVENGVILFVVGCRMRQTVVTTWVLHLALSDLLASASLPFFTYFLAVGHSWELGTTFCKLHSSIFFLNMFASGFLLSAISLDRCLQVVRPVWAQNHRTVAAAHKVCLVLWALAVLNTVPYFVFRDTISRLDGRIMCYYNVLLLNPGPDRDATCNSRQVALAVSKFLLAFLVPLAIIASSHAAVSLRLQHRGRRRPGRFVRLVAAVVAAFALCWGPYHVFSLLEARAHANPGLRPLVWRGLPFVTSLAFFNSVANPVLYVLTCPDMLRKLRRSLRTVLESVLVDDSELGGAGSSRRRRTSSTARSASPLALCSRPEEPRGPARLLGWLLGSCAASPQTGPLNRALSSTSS
PROTOCOL SUMMARY: Human CRTH2 Receptor Binding Assay (whole cell, [3H]ramatroban competition)
CONDITION CONTEXT: CHO-K1 cells expressing human CRTH2 and G-alpha16; 20 nM [3H]ramatroban; 1 hour, room temperature
Please go through the items and note down their IC50.
Units required after the number.

[ask] // fetch human CRTH2 (Homo sapiens) IC50 for CN(C1CCCc2c(OCC(=O)O)cc(Cl)cc21)S(=O)(=O)c1cc(C(F)(F)F)cc(C(F)(F)F)c1 (stereo not shown) [Example 2-4]
[reply] 8.3 nM

[ask] // fetch human CRTH2 (Homo sapiens) IC50 for CN(C1CCCc2c1cc(Cl)c(F)c2OCC(=O)O)S(=O)(=O)c1cc(F)cc(C(F)(F)F)c1 (stereo not shown) [Example 2-15]
[reply] 14.1 nM

[ask] // fetch human CRTH2 (Homo sapiens) IC50 for O=C(O)COc1c(F)c(Cl)cc2c1CCCC2NS(=O)(=O)c1cc(Cl)ccc1Cl (stereo not shown) [Example 1-10]
[reply] 11.4 nM

[ask] // fetch human CRTH2 (Homo sapiens) IC50 for CN(C1CCCc2c1cc(Cl)c(F)c2OCC(=O)O)S(=O)(=O)c1cc(Br)cc(C(F)(F)F)c1 (stereo not shown) [Example 2-12]
[reply] 12.3 nM

[ask] // fetch human CRTH2 (Homo sapiens) IC50 for CN(C1CCCc2c(OCC(=O)O)cc(Cl)cc21)S(=O)(=O)c1cc(F)cc(C(F)(F)F)c1 (stereo not shown) [Example 2-14]
[reply] 11.2 nM

[ask] // fetch human CRTH2 (Homo sapiens) IC50 for O=C(O)COc1cc(Cl)cc2c1CCCC2NS(=O)(=O)c1cc(Cl)ccc1Cl (stereo not shown) [Example 1-13]
[reply] 7.1 nM

[ask] // fetch human CRTH2 (Homo sapiens) IC50 for CC(C)c1cccc(-c2ccc(S(=O)(=O)NC3CCCc4c3cc(F)c(F)c4OCC(=O)O)nc2)c1 (stereo not shown) [Example 1-34]
[reply] 8.6 nM

Data origin, for the record: patent US8263656B2
